meta.source: PubChem BioAssay (NCI)

system: T-47D breast; assay: NCI tumour cell line growth inhibition, 48 h
assay metric: TGI (µM)
// return numeric value only (unit: µM, not printed)

### Prompt Entry "Cc1ccc(CNc2ccc(Cl)cc2NCc2ccc(C)c(O)c2)cc1O" has what TGI?
### Response 20.1

# input for lookup
### Prompt Suppose we examine the molecule "COC(=O)c1c(C(=O)OC)c2ccccn2c1-c1cc(C)cc2c1C(=O)C=CC2=O" ; what TGI value has been reported?
### Response 7.83

---

tested on: UACC-62 melanoma; assay: NCI tumour cell line growth inhibition, 48 h
assay metric: TGI

### Prompt Would you mind telling me what TGI value was observed for NC(C(=O)O)C(O)c1cnc[nH]1 (configuration not stated) ?
### Response > 100 µM

### Prompt Param item = "N#CCC1CCN(c2nc(Nc3ccc(N4CCC(O)CC4)cc3)c3c(=O)[nH]ncc3n2)CC1" ; retrieve measured TGI.
### Response > 100 µM

### Prompt Return reported TGI; argument: "COc1cc(CCNC2=CC(=O)c3ncccc3C2=O)ccc1O"
### Response 3.8 µM

### Prompt Look up TGI: "COc1cc(Nc2nc(NS(=O)(=O)c3cc(C)c(Cl)cc3S)n[nH]2)cc(OC)c1OC"
### Response > 100 µM

### Prompt Need TGI, item "O=c1oc2cc(O)ccc2c(O)c1C(c1ccc(/C=C/c2ccccc2)cc1)c1c(O)c2ccc(O)cc2oc1=O"
### Response > 100 µM

Further cases:
### Prompt Look at this compound and give its reported TGI. Cc1cc(C)c(CNC(=O)c2cc(Cl)c3c(c2C)O[C@@](C)(C2CCC(N(C)C)CC2)O3)c(=O)[nH]1 (some centres not stated)
### Response > 100 µM

### Prompt Recorded TGI of "COc1cc(OC)cc(Oc2nc3ccc(C(F)(F)F)cc3nc2-c2ccccc2)c1" , please.
### Response > 100 µM

### Prompt What measured TGI goes with CC1=C(C(N)=O)C(c2ccncc2)C(C#N)C(=O)N1 (configuration not stated) ?
### Response > 100 µM

### Prompt What value of TGI has been reported for the following compound? CCOC(=O)n1c(=O)nc2c3c(ncn21)Oc1c(c(-c2ccccc2)nn1-c1ccccc1)C3c1ccc(Cl)cc1 (configuration not stated)
### Response 3.1 µM

### Prompt // query TGI value for entry "CCc1c(N=[N+]=[N-])c2ccccc2oc1=O"
### Response > 100 µM

### Prompt Which TGI value is on record for "Cc1nnc(NS(=O)(=O)c2ccc(N=Nc3c(O)c(C(=O)O)cc4ccccc34)cc2)s1" ?
### Response > 100 µM

### Prompt What does the data say about its TGI? Entry: C/C=C/C(C/C=C(\C)CO[Si](C)(C)C(C)(C)C)O[Si](C)(C)C(C)(C)C (configuration not stated)
### Response > 100 µM
